Taken from patent US9765069B2.

system: P9; assay: MIC determination (bacteria), strain P9; type: cell-based, S. pneumoniae; conditions: Table 2; 2-fold broth dilution
Measured MIC P9 values are reported for all entries that follow.
Dear colleague, please return just the value in µg/mL, with no unit written.

The following compounds have reported results that may help.
CCCC(=O)N1CC(=O)C(=C(O)CC23CC4CC(CC(C4)C2)C3)C1=O [27j]    4
CCCCCCC(=O)N1CC(=O)C(=C(O)CCCCc2ccccc2)C1=O [28b]    0.25
CSCCC1C(=O)C(=C(O)CC23CC4CC(CC(C4)C2)C3)C(=O)N1C(=O)C1CCCCC1 (stereo not drawn) [31f]    0.5
CCCC(=O)N1CC(=O)C(=C(O)CCCCC2CCCCC2)C1=O [27o]    0.5

Look at this compound and give its reported MIC P9. O=C1CCN(C(=O)c2ccccc2)C(=O)C1=C(O)CCCCC1CCCCC1 [19c]
1

Look at this compound and give its reported MIC P9. CSCCC1C(=O)C(=C(O)CC23CC4CC(CC(C4)C2)C3)C(=O)N1C(C)=O (stereo not drawn) [31d]
8

Look at this compound and give its reported MIC P9. CCCC(=O)N1CC(=O)C(=C(O)CC23CC4CC(C)(CC(C)(C4)C2)C3)C1=O [27k]
0.5

Look at this compound and give its reported MIC P9. CCCCCCC(=O)N1CC(=O)C(=C(O)CC23CC4CC(CC(C4)C2)C3)C1=O [27i]
0.12

---

Measured MIC P9 values are reported for all entries that follow.
System: P9
Test: MIC determination (bacteria), strain P9
Format: cell-based, S. pneumoniae
Conditions: Table 2; 2-fold broth dilution
Method: MIC determination (bacteria); MICs were determined based on Clinical and Laboratory Standards Institute (CLSI) methodology (Methods for dilution antimicrobial susceptibility tests for bacteria that grow aerobically; Approved Standard—seventh edition. 2006, M7-A7, CLSI, Wayne Pa.) by a 2-fold broth dilution technique in Mueller Hinton (pH7.4 Biorad). For S. pneumoniae, the medium was supplemented with 2.5% laked horse blood. For H. influenzae, the medium was haemophilus test medium (H.T.M.). […]
Dear colleague, please return just the value in mg/L, with no unit written.

The following compounds have reported results that may help.
Cc1ccccc1C(=O)N1CC(=O)C(=C(O)CCCCC2CCCCC2)C1=O [27s]    2
CCCCCCC(=O)N1CC(=O)C(=C(O)CC2CC3CCC2C3)C1=O (stereo not drawn) [27a]    0.5
O=C1CCN(C(=O)c2ccccc2)C(=O)/C1=C(\O)CCc1ccc(-c2ccccc2C(F)(F)F)o1 [19e]    2
CCCCCCC(=O)N1CC(=O)C(=C(O)CCc2ccc(SC)cc2)C1=O [28d]    0.5
CSCCC1C(=O)C(=C(O)CC23CC4CC(C)(CC(C)(C4)C2)C3)C(=O)N1C(C)=O (stereo not drawn) [31e]    2

Look at this compound and give its reported MIC P9. CCCCCCC(=O)N1CC(=O)C(=C(O)CC2CCCCC2)C1=O [27b]
0.5

Look at this compound and give its reported MIC P9. CC(C)CC1C(=O)C(=C(O)CCCCCc2ccccc2)C(=O)N1C(=O)c1ccccc1 (stereo not drawn) [30a]
1

Look at this compound and give its reported MIC P9. CCCCCCC(=O)N1CC(=O)C(=C(O)CCCOc2ccc(Cl)cc2C)C1=O [28h]
0.5
